Cited source: patent US9670157B2

experimentalSystem: Human plasma kallikrein (Homo sapiens (Human), UniProt P03952)
Sequence (P03952 391-638): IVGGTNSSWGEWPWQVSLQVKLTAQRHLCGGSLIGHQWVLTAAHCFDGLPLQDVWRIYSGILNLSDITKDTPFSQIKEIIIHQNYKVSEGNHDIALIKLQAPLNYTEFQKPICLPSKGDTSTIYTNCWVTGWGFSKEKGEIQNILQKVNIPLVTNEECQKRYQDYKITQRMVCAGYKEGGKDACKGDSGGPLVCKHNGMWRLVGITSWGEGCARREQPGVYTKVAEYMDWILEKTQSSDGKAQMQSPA
Sequence (P03952 20-390 partner): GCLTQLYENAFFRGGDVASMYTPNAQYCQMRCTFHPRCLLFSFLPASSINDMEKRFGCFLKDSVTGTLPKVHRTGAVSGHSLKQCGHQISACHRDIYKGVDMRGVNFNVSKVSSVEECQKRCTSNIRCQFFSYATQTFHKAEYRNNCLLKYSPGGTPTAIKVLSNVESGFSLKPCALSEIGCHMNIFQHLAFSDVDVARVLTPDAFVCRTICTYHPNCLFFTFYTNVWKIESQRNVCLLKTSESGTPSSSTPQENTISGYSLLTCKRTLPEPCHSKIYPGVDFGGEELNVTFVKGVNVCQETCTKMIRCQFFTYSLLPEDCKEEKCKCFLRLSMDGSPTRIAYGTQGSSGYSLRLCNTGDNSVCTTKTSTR
procedureSummary: Determination of the IC50 for Plasma Kallikrein
Format: biochemical
appliedConditions: 37° C., fluorogenic substrate H-DPro-Phe-Arg-AFC; read-out: IC50 (human PKal)
In this section we review reported IC50 values for a set of compounds.

Worked cases, IC50 given:
[
  {
    "structureSmiles": "Cc1cc(C(=O)NCc2ccc(CN)cc2)c(C)n1Cc1csc(-c2ccncc2)n1",
    "experimentalSystem": "Human plasma kallikrein (Homo sapiens (Human), UniProt P03952)",
    "IC50": "732 nM"
  },
  {
    "structureSmiles": "Cc1cccc(-c2nc(Cn3c(C)cc(C(=O)NCc4ccc(CN)cc4)c3C)cs2)c1",
    "experimentalSystem": "Human plasma kallikrein (Homo sapiens (Human), UniProt P03952)",
    "IC50": "773 nM"
  }
]

Provide Human plasma kallikrein (Homo sapiens (Human), UniProt P03952) IC50 reading for `Cc1cc(C(=O)NCc2ccc(CN)cc2)c(C)n1Cc1csc(-c2cnccn2)n1` . 1660 nM

Provide Human plasma kallikrein (Homo sapiens (Human), UniProt P03952) IC50 reading for `Cc1cc(C(=O)NC2(c3ccc(CN)cc3)CC2)c(C)n1Cc1csc(-c2ccccc2)n1` . 475 nM

Provide Human plasma kallikrein (Homo sapiens (Human), UniProt P03952) IC50 reading for `Cc1cc(C(=O)NCc2ccc(CN)cc2)c(C)n1Cc1csc(-c2ccccn2)n1` . 203 nM

Provide Human plasma kallikrein (Homo sapiens (Human), UniProt P03952) IC50 reading for `Cc1cc(CN)ccc1CNC(=O)c1cc(C)n(Cc2ccc(Cn3ccccc3=O)cc2)c1C` . 29 nM

Provide Human plasma kallikrein (Homo sapiens (Human), UniProt P03952) IC50 reading for `Cc1cnn(Cc2ccc(Cn3cc(C(=O)NCc4c(C)cc(CN)cc4C)c(C)n3)cc2)c1` . 0.6 nM

Provide Human plasma kallikrein (Homo sapiens (Human), UniProt P03952) IC50 reading for `Cc1cnn(Cc2ccc(Cn3nc(C)c(C(=O)NCc4c(C)cc(CN)cc4C)c3C)cc2)c1` . 11700 nM

Provide Human plasma kallikrein (Homo sapiens (Human), UniProt P03952) IC50 reading for `Cc1cnn(Cc2ccc(Cn3cc(C(=O)NCc4ccc(C5(N)CC5)cc4)cn3)cc2)c1` . 694 nM

Provide Human plasma kallikrein (Homo sapiens (Human), UniProt P03952) IC50 reading for `Cc1cc(C(=O)NCc2ccc(CN)nc2)c(C)n1Cc1csc(-c2cccc(F)c2)n1` . 355 nM

Provide Human plasma kallikrein (Homo sapiens (Human), UniProt P03952) IC50 reading for `CCn1c(C(=O)NCc2ccc(CN)cc2)cc(C)c1Cc1ccc(Cn2cc(C)cn2)cc1` . 155 nM

Provide Human plasma kallikrein (Homo sapiens (Human), UniProt P03952) IC50 reading for `Cc1cc(C(=O)NCc2ccc(CN)cc2)c(C)n1Cc1cc(-c2ccncc2)cs1` . 2300 nM

Provide Human plasma kallikrein (Homo sapiens (Human), UniProt P03952) IC50 reading for `Cc1cnn(Cc2ccc(Cn3c(C)cc(C(=O)NCc4c(C)cc(CN)cc4C)c3C)cc2)c1` . 4 nM

====

experimentalSystem: Human plasma kallikrein (Homo sapiens (Human))
procedureSummary: Determination of the IC50 for Plasma Kallikrein
Format: biochemical
appliedConditions: 37° C., fluorogenic substrate H-DPro-Phe-Arg-AFC; read-out: IC50 (human PKal)
In this section we review reported pIC50 values for a set of compounds.
Worth noting: pIC50 values are minus log10 of concentrations stated in mol/L.

Worked cases, pIC50 given:
[
  {
    "compound": "CCCn1c(C(=O)NCc2ccc(CN)cc2)cc(C)c1Cc1ccccc1 [Example 78]",
    "pIC50": 5.38
  },
  {
    "compound": "Cc1cc(CNC(=O)c2cc(C)n(Cc3csc(-c4ccccc4)n3)c2C)ccc1CN [Example 46]",
    "pIC50": 5.93
  }
]

Now consider the entry below.
Provide Human plasma kallikrein (Homo sapiens (Human)) pIC50 reading for Cc1cc(C(=O)NCc2ccc(CN)cc2)c(C)n1Cc1cccc(N2CCCCC2)c1 [Example 74] . 5.80
